assay: AUC (0 to t) in Wistar rat at 10 mg/kg, iv administered as single bolus dose; type: ADME, organism-based, Plasma; design: dose 10 mg/kg, route intravenous; conditions: Wistar, plasma
reported endpoint: AUC(0-t)

[[record]]
molecule = "O=C(NN1C(=O)CCSC1c1ccc(OCc2ccccc2)cc1)c1ccncc1 (stereo unspecified)"
value = "7500 ng·h/mL"


----------
test system: HepG2; test: Cytotoxicity against human HepG2 cells at 20 to 25 uM after 48 hrs by MTT assay; type: cell-based; conditions: hepg2, 48 h
Entries are grouped by Activity into these classes: LOW: < 10%; MID: ≥ 10% and < 20%; HIGH: ≥ 20%

[[record]]
compound = "O=C(NN1C(=O)CCSC1c1ccc(OCc2ccccc2)cc1)c1ccncc1 (stereo unspecified)"
class_assignment = "LOW"

[[record]]
compound = "O=C(NN1C(=O)CCSC1c1ccccc1Br)c1ccncc1 (stereo unspecified)"
class_assignment = "HIGH"

[[record]]
compound = "O=C(NN1C(=O)CCSC1c1ccc(Cl)cc1)c1ccncc1 (stereo unspecified)"
class_assignment = "HIGH"

[[record]]
compound = "O=C(NN1C(=O)CCSC1c1cccc(OCc2ccccc2)c1)c1ccncc1 (stereo unspecified)"
class_assignment = "MID"

[[record]]
compound = "O=C(NN1C(=O)CCSC1c1ccc(Br)cc1)c1ccncc1 (stereo unspecified)"
class_assignment = "MID"

[[record]]
compound = "O=C(NN1C(=O)CCSC1c1ccc(C(F)(F)F)cc1)c1ccncc1 (stereo unspecified)"
class_assignment = "HIGH"

[[record]]
compound = "O=C(NN1C(=O)CCSC1c1ccc(O)cc1)c1ccncc1 (stereo unspecified)"
class_assignment = "MID"

[[record]]
compound = "O=C(NN1C(=O)CCSC1c1cccc(O)c1)c1ccncc1 (stereo unspecified)"
class_assignment = "LOW"

[[record]]
compound = "O=C(NN1C(=O)CCSC1c1ccccc1F)c1ccncc1 (stereo unspecified)"
class_assignment = "MID"

[[record]]
compound = "CN(C)c1ccc(C2SCCC(=O)N2NC(=O)c2ccncc2)cc1 (stereo unspecified)"
class_assignment = "LOW"

[[record]]
compound = "O=C(NN1C(=O)CCSC1Cc1ccc([N+](=O)[O-])o1)c1ccncc1 (stereo unspecified)"
class_assignment = "HIGH"

